# assay.summary: Dynamic Vapor Sorption (DVS) analysis, equilibrium water absorption
# Type: physicochemical
# test.settings: DVS at 50% humidity, 25° C., single moisturizing agents / Ex. 1 and 2 products
assay.metric: % water absorbed (based on weight of moisturizing agent) (%)
Record the value in %, omitting the unit from your answer.

# input Recorded % water absorbed (based on weight of moisturizing agent) of OCC(O)CO [D, Glycerol] , please.
# output 27.7

# input Looking for the measured % water absorbed (based on weight of moisturizing agent) of CC(O)C(=O)[O-].[Na+] (centres unmarked) [F, Sodium lactate] , can you help?
# output 35.1

# input # get_value(readout='% water absorbed (based on weight of moisturizing agent)', item= CC(=O)NCCOCCO [C, N-acetyl diglycolamine] )
# output 26.9

# input Consider the molecule shown here: O=C1CCC(C(=O)[O-])N1.[Na+] (centres unmarked) [E, sodium pyrrolidone carboxylate] What is its recorded % water absorbed (based on weight of moisturizing agent)?
# output 28.7

# input Requested field: % water absorbed (based on weight of moisturizing agent). Item: NC(=O)NCCO [A, Hydroxyethyl urea]
# output 19.7

meta.source: patent US11154476B2
